tested on: LoVo-Dox; assay: Inhibition of cells growth by colorimetric assay (SRB); settings: Homo sapiens, 48 h, read-out: GI50 LOVO-DOX
This listing pairs compounds with measured GI50.
Record the value in nM, omitting the unit from your answer.

Observe how each entry below is paired with its result.
- COMPOUND: "C=CCN1[C@@H]2c3c(cc(C)c(OC)c3O)C[C@H]1[C@H](C#N)N1C2[C@@H]2SCC(NC(=O)C(F)(F)F)C(=O)OC[C@H]1c1c3c(c(C)c(OC(C)=O)c12)OCO3 (stereo partly drawn) [compound 25]"
  TEST VALUE: 904
- COMPOUND: "C=CCN1[C@@H]2c3c(cc(C)c(OC)c3O)C[C@H]1[C@H](C#N)N1C2[C@@H]2SCC(NC(=O)CCCCCCCCCCCCCCC)C(=O)OC[C@H]1c1c3c(c(C)c(OC(C)=O)c12)OCO3 (stereo partly drawn) [compound 26]"
  TEST VALUE: 11600
- COMPOUND: "C=CCOc1c(C)c2c(c3c1CC1[C@H]4c5c(cc(C)c(OC)c5O)C[C@@H]([C@H](C#N)N1[C@H]3CO)N4C)OCO2 (stereo partly drawn) [compound 2]"
  TEST VALUE: 924

LoVo-Dox GI50 of COc1c(C)cc2c(c1O)[C@H]1N[C@@H](C2)[C@H](C#N)N2C1[C@@H]1SCC(NC(C)=O)C(=O)OC[C@H]2c2c3c(c(C)c(OC(C)=O)c21)OCO3 (stereo partly drawn) [compound 30] is 207
